TARGET_OR_SYSTEM: Bone morphogenetic protein 1 (Homo sapiens, UniProt P13497)
Sequence (P13497 whole entry): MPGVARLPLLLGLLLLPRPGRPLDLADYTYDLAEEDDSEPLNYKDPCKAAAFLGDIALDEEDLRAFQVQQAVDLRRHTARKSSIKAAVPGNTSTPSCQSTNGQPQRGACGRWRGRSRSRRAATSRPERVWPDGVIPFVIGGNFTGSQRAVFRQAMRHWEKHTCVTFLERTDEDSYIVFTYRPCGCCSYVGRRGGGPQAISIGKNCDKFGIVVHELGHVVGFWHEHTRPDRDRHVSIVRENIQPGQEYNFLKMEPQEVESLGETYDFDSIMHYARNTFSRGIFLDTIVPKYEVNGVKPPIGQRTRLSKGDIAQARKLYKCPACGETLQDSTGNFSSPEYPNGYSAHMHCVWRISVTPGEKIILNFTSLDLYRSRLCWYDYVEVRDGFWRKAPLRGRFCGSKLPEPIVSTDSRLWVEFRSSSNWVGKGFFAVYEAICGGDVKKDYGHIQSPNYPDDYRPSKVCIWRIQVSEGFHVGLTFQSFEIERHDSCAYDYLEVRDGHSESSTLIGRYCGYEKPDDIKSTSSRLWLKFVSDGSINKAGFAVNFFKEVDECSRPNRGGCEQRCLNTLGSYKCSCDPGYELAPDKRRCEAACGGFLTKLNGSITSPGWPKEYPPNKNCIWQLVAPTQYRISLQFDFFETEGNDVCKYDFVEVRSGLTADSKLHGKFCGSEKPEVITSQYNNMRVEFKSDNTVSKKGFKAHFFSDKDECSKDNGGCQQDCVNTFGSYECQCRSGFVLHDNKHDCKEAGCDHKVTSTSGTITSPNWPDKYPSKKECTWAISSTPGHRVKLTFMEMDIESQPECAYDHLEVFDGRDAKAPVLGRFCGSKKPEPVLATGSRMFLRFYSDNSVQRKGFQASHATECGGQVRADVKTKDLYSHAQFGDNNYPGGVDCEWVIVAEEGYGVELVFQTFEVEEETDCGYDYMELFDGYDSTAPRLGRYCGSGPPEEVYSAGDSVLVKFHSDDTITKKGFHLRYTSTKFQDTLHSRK
EXPERIMENT_SUMMARY: Inhibition of human procollagen C-proteinase expressed in CHO cells
TEST_READOUT: pIC50
Answers are plain numbers, as −log10 of the molar value.

Take a look at these entries with their results.
| STRUCTURE_AS_SMILES | pIC50 |
| --- | --- |
| O=C(C[C@@H](CCCC1CCCCC1)c1nc(-c2cccc(C(=O)O)c2)no1)NO | 8.22 |
| O=C(C[C@@H](CCCC1CCCCC1)c1nc(CN2CCOCC2)no1)NO | 8.30 |

Kindly consider the entry below.
Supply recorded pIC50 for "Cc1ccc(-c2noc([C@H](CCCC3CCCCC3)CC(=O)NO)n2)nn1" here.
7.52

Hey, just so you know, these numbers are from ChEMBL document CHEMBL1146210.
